measurementTarget: UniProtKB Q9UBN7
Sequence (Q9UBN7 whole entry): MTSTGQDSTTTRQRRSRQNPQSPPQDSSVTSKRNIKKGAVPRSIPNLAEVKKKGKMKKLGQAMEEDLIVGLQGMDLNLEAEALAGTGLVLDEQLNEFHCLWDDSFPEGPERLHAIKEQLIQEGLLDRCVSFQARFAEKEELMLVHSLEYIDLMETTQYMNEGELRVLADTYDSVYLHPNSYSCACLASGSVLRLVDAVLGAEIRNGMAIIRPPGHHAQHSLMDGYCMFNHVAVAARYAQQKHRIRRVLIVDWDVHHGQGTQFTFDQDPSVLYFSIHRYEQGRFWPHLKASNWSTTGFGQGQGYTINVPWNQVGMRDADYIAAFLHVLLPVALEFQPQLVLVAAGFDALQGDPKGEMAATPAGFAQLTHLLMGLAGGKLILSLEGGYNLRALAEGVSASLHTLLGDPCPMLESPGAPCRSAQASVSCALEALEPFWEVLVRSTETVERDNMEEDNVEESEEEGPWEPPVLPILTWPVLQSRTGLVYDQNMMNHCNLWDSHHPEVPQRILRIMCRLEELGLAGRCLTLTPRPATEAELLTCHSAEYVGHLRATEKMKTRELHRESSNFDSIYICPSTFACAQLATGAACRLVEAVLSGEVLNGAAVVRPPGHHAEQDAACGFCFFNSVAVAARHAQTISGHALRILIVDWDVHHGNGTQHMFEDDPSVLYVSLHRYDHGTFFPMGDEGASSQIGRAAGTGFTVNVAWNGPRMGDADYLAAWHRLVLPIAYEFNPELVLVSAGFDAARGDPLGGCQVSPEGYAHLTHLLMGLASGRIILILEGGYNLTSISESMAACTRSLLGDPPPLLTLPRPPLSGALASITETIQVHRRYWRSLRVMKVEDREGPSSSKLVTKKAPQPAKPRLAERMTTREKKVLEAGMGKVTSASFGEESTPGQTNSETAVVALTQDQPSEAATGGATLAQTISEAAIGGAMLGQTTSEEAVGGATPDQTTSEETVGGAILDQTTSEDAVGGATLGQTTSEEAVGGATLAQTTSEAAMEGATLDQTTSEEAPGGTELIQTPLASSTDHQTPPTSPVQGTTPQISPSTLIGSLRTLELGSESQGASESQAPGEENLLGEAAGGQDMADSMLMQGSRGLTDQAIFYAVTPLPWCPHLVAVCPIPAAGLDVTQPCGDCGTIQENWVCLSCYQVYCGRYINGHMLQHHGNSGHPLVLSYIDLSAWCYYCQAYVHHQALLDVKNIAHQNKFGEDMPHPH
pIC50: −log10 of the molar value.
Reported pIC50 on UniProtKB Q9UBN7 for assorted compounds, compiled from publications.
reportedProperty: pIC50

The examples below pair each entry with its known result.
[
  {
    "compound": "O=C(NO)c1ccc(Cn2ccc3cc(C(=O)c4ccc(F)cc4)ccc32)cc1",
    "pIC50": 8.03
  },
  {
    "compound": "O=C(NO)c1cccc(S(=O)(=O)Nc2ccccc2)c1",
    "pIC50": 5.82
  }
]

P: O=C1NC[C@H](c2ccccc2)[C@H]1C(=O)N[C@@H](CCCCCS)C(=O)Nc1ccccc1
Q: COc1cc2c(NCc3ccc([C@H]4CC[C@H](C(=O)NO)CC4)cc3)cc(-c3ccc(C)o3)nc2cc1OCCCN1CCCC1
R: Cc1ccc(CC2(c3ccccc3)NC(=O)N(Cc3ccc(C(=O)NO)cc3)C2=O)cc1 (racemic)
S: Cc1ccc(CN2C(=O)N(c3ccc(Cl)cc3)C(=O)C2CCC(=O)NCc2ccc(C(=O)NO)cc2)cc1 (centres undefined)
T: CCCCCCCC(=O)SCC/C=C/[C@@H]1CC(=O)NCc2nc(co2)C2=N[C@@](C)(CS2)C(=O)N[C@@H](C(C)C)C(=O)O1
Put these in order: smallest pIC50 first, largest last. List labels; respect the requested ordering.
Q, T, P, R, S
(Q: 5.02, T: 5.96, P: 6.80, R: 7.08, S: 7.72)

A: CC(C)[C@@H]1NC(=O)[C@]2(C)CSC(=N2)c2coc(n2)CNC(=O)C[C@@H](/C=C/CCS)OC1=O
B: O=C(/C=C/c1ccc2c(c1)C(=O)N(Cc1ccc(-c3ccccc3)cc1)C2)NO
C: O=C(CCCCCCn1cc(Nc2ncc3ccn(Cc4ccccc4Cl)c3n2)cn1)NO
Put these in order: smallest pIC50 first, largest last. List labels; respect the requested ordering.
B, A, C
(B: 6.12, A: 7.01, C: 7.38)

a: CC(C)(C)c1ccc(CC2(c3ccccc3)NC(=O)N(Cc3ccc(C(=O)NO)cc3)C2=O)cc1 (racemic)
b: Cc1ccc(-c2cc(C(F)(F)F)nn2-c2ccc(S(=O)(=O)NCCCCCCC(=O)NO)cc2)cc1
// compare: a vs b , metric pIC50, want the smaller Please reply using the label of the selected record.
a
(a: 6.94, b: 7.18)

a: COc1ccccc1C(=O)N[C@H](COc1cccc(/C=C/C(=O)NO)c1)Cc1c[nH]c2ccccc12
b: COc1ccc(COc2cccc3ccc(C(=O)NCc4ccc(C(=O)NO)cc4)nc23)cc1
c: Nc1ccc(-c2cn(Cc3ccc(C(=O)NO)cc3)c(=O)c(N3CCOCC3)n2)cc1
Put these in order: smallest pIC50 first, largest last. List labels; respect the requested ordering.
b, a, c
(b: 7.21, a: 7.62, c: 7.89)

I: O=C(CCCCCC(c1c[nH]c2ccccc12)c1c[nH]c2ccccc12)NO
II: CC(C)(C)OC(=O)N[C@@H](CCCCCS)C(=O)NC1CCCC1
// compare: I vs II , metric pIC50, want the smaller Please reply using the label of the selected record.
II
(II: 7.54, I: 8.22)

====

measurementTarget: Protein deacetylase HDAC6 (Homo sapiens, UniProt Q9UBN7)
Sequence (Q9UBN7 whole entry): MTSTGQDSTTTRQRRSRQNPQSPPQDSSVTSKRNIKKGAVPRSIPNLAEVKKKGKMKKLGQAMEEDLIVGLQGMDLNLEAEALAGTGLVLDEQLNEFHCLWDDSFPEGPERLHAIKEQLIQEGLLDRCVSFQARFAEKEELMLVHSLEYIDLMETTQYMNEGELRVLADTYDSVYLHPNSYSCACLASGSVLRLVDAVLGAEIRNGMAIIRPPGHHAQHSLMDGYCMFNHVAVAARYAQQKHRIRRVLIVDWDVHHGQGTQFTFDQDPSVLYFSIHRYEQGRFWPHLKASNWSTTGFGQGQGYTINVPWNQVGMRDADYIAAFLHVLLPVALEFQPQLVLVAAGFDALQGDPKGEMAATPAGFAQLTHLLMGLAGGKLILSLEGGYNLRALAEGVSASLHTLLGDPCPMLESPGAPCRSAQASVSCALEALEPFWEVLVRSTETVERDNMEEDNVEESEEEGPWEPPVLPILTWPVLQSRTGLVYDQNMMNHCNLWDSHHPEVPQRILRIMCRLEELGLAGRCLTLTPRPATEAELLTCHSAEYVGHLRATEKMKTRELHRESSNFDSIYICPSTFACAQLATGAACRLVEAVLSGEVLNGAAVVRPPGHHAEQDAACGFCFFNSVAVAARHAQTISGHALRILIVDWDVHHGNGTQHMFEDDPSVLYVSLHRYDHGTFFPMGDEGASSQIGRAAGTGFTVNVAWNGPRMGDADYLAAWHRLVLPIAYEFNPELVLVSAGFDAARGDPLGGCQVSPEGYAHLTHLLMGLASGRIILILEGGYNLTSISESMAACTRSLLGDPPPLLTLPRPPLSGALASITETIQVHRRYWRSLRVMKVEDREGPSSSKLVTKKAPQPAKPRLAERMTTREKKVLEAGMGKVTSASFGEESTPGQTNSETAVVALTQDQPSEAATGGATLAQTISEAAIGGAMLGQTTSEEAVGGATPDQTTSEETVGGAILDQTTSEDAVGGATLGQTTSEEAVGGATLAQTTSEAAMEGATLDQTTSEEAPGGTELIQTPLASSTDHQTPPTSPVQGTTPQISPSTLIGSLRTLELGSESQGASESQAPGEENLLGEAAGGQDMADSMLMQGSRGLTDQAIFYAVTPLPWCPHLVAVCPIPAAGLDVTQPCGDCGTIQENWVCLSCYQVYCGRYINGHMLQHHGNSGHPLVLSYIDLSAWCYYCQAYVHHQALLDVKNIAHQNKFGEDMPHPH
Reported IC50 on Protein deacetylase HDAC6 (Homo sapiens, UniProt Q9UBN7) for assorted compounds, compiled from publications.
reportedProperty: IC50 (nM)

[
  {
    "compound": "O=C(NO)c1ccc(CN(CCCO)C(=O)Cc2ccccc2)cc1",
    "measurementTarget": "Protein deacetylase HDAC6 (Homo sapiens, UniProt Q9UBN7)",
    "readoutValue": 31
  },
  {
    "compound": "O=C(CCCCC1CC(C(=O)NO)=NO1)Nc1ccccc1 (stereo not given)",
    "measurementTarget": "Protein deacetylase HDAC6 (Homo sapiens, UniProt Q9UBN7)",
    "readoutValue": 760
  },
  {
    "compound": "COc1ccc(/C=C/C(=O)c2cc(OC)c(OC)c(OC)c2)cc1OCCCCCCC(=O)NO",
    "measurementTarget": "Protein deacetylase HDAC6 (Homo sapiens, UniProt Q9UBN7)",
    "readoutValue": 4.6
  },
  {
    "compound": "CCC(=O)CCCCC[C@H](NC(=O)[C@H]1CC12CCN(C(C)=O)CC2)c1ncc(-c2cc3ccccc3nc2OC)[nH]1",
    "measurementTarget": "Protein deacetylase HDAC6 (Homo sapiens, UniProt Q9UBN7)",
    "readoutValue": 1170
  }
]

P: O=C(NO)c1coc(CN2c3ccccc3Sc3ccccc32)n1
Q: Cc1cnc(Nc2ccc(OCCCCCCC(=O)NO)cc2)nc1Nc1cccc(S(=O)(=O)NC(C)(C)C)c1
R: Cc1ccc(-c2nc(C(=O)NO)co2)cc1
S: O=C(NO)c1ccc(N2c3ccccc3Sc3ccccc32)cc1
T: CN(Cc1ccc2nccnc2c1)C(=O)c1ccc(C(=O)C(F)(F)F)s1
Put these in order: smallest IC50 first, largest last. List labels; respect the requested ordering.
Q, T, R, P, S
